# Tested on: M14
# Test name: % viability under drug (72 h drug + 72 h recovery), miRNA mimic relative to NTC in DMSO; higher = more surviving cells
# Assay context: drug used in drug arm: AZ628 1 uM; treatment: drug
Could you mark each record 1 if its % viability under drug falls strictly under 6%, and -1 if it equals or exceeds it?

[[record]]
ordered_residues = "ACAGUAGAGGGAGGAAUCGCAG"
experimental_target = "M14"
category = 1

[[record]]
ordered_residues = "CAAUGUUUCCACAGUGCAUCAC"
experimental_target = "M14"
category = 1

[[record]]
ordered_residues = "UAGGUAGUUUCAUGUUGUUGGG"
experimental_target = "M14"
category = -1

[[record]]
ordered_residues = "AAAAGUAAUUGUGGUUUUUGCC"
experimental_target = "M14"
category = -1

[[record]]
ordered_residues = "AAAAGUACUUGCGGAUUUUGCU"
experimental_target = "M14"
category = -1


Threshold test, % viability under drug < 6%: GUCAUACACGGCUCUCCUCUCU
1

Threshold test, % viability under drug < 6%: GAAUGUUGCUCGGUGAACCCCU
1

Threshold test, % viability under drug < 6%: AAGUGCCGCCAUCUUUUGAGUGU
1

Threshold test, % viability under drug < 6%: GCGAGGACCCCUCGGGGUCUGAC
-1

Threshold test, % viability under drug < 6%: AGUUAAUGAAUCCUGGAAAGU
-1

Threshold test, % viability under drug < 6%: UCUACAAAGGAAAGCGCUUUCU
-1

Threshold test, % viability under drug < 6%: UGUCAGUUUGUCAAAUACCCCA
-1

Threshold test, % viability under drug < 6%: CAAAAGUAAUUGUGGAUUUUGU
-1

* * *

# Tested on: COLO-205
# Test name: % viability in DMSO, miRNA mimic relative to NTC in DMSO; higher = less cytotoxic
# Assay context: drug used in drug arm: AZ628 1 uM; treatment: DMSO
Catalogue of sequences with associated % viability in DMSO
The figure you give is taken to be in %; do not add the unit.

Known results for sequences:
[[record]]
ordered_residues = "AAAAGUAAUUGCGGAUUUUGCC"
unit_tag = "%"
number = 101

[[record]]
ordered_residues = "AACGCCAUUAUCACACUAAAUA"
unit_tag = "%"
number = 106

[[record]]
ordered_residues = "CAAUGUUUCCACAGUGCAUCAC"
unit_tag = "%"
number = 98.6


Now let's try a different one.
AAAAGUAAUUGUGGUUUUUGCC has a reported % viability in DMSO of 95

* * *

# Tested on: HCC-1954
# Test name: % viability in DMSO, miRNA mimic relative to NTC in DMSO; higher = less cytotoxic
# Assay context: drug used in drug arm: GDC-0980 2.5 uM; treatment: DMSO
Could you mark each record Met if its % viability in DMSO falls strictly under 70%, and Not met if it equals or exceeds it?

Worked set:
[[record]]
ordered_residues = "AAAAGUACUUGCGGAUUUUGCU"
experimental_target = "HCC-1954"
category = "Not met"

[[record]]
ordered_residues = "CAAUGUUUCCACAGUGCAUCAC"
experimental_target = "HCC-1954"
category = "Met"

[[record]]
ordered_residues = "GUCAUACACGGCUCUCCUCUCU"
experimental_target = "HCC-1954"
category = "Met"


Threshold test, % viability in DMSO < 70%: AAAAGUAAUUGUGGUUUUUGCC
Not met

Threshold test, % viability in DMSO < 70%: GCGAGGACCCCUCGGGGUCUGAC
Met

Threshold test, % viability in DMSO < 70%: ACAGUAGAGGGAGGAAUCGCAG
Met

Threshold test, % viability in DMSO < 70%: GAGCCAGUUGGACAGGAGC
Met

Threshold test, % viability in DMSO < 70%: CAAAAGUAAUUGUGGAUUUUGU
Not met

Threshold test, % viability in DMSO < 70%: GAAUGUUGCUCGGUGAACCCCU
Met

* * *

# System: COLO-205
# Test name: % viability under drug (72 h drug + 72 h recovery), miRNA mimic relative to NTC in DMSO; higher = more surviving cells
# Assay context: drug used in drug arm: AZ628 1 uM; treatment: drug
Could you mark each record Y if its % viability under drug falls strictly under 40%, and N if it equals or exceeds it?

Worked set:
[[record]]
ordered_residues = "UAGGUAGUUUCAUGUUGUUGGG"
category = "Y"

[[record]]
ordered_residues = "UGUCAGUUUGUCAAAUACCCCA"
category = "Y"

[[record]]
ordered_residues = "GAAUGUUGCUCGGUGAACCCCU"
category = "Y"

[[record]]
ordered_residues = "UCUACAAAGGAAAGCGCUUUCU"
category = "N"

[[record]]
ordered_residues = "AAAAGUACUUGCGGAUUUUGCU"
category = "N"


Threshold test, % viability under drug < 40%: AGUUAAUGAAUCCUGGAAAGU
N

Threshold test, % viability under drug < 40%: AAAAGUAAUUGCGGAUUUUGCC
N

Threshold test, % viability under drug < 40%: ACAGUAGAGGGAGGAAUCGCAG
Y

Threshold test, % viability under drug < 40%: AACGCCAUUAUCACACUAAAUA
N

Threshold test, % viability under drug < 40%: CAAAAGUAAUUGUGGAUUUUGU
N

Threshold test, % viability under drug < 40%: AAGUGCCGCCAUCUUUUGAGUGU
Y

Threshold test, % viability under drug < 40%: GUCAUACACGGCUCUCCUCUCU
Y

Threshold test, % viability under drug < 40%: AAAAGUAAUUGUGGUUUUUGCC
N

Threshold test, % viability under drug < 40%: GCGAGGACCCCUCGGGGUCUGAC
N

Threshold test, % viability under drug < 40%: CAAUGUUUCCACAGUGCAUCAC
Y

* * *

# System: EVSA-T
# Test name: % viability in DMSO, miRNA mimic relative to NTC in DMSO; higher = less cytotoxic
# Assay context: drug used in drug arm: GDC-0980 2.5 uM; treatment: DMSO
Would you mind sorting the entries by % viability in DMSO according to these classes? category 1 = under 20%, category 2 = from 20% up to 40%, category 3 = 40% and over

Worked set:
[[record]]
ordered_residues = "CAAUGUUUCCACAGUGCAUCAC"
experimental_target = "EVSA-T"
category = "category 1"

[[record]]
ordered_residues = "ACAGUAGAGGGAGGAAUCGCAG"
experimental_target = "EVSA-T"
category = "category 2"

[[record]]
ordered_residues = "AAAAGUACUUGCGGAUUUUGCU"
experimental_target = "EVSA-T"
category = "category 3"

[[record]]
ordered_residues = "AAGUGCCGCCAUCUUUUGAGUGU"
experimental_target = "EVSA-T"
category = "category 1"

[[record]]
ordered_residues = "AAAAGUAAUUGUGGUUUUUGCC"
experimental_target = "EVSA-T"
category = "category 3"

[[record]]
ordered_residues = "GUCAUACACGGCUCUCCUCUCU"
experimental_target = "EVSA-T"
category = "category 1"

[[record]]
ordered_residues = "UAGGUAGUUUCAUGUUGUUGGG"
experimental_target = "EVSA-T"
category = "category 1"

[[record]]
ordered_residues = "GAGCCAGUUGGACAGGAGC"
experimental_target = "EVSA-T"
category = "category 2"

[[record]]
ordered_residues = "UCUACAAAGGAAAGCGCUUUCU"
experimental_target = "EVSA-T"
category = "category 2"

[[record]]
ordered_residues = "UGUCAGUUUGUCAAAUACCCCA"
experimental_target = "EVSA-T"
category = "category 2"


Textbook exercise: identify the category of the sequence given here, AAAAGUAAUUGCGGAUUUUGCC , according to its measured value.
category 3

Textbook exercise: identify the category of the sequence given here, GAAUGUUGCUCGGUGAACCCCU , according to its measured value.
category 1

Textbook exercise: identify the category of the sequence given here, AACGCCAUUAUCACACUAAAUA , according to its measured value.
category 2

Textbook exercise: identify the category of the sequence given here, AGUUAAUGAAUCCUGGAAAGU , according to its measured value.
category 2

* * *

# Tested on: PC9
# Test name: cell count fold change with erlotinib, miRNA mimic vs non-targeting control (log2 ratio); higher = more drug-tolerant survivors than NTC
# Assay context: erlotinib 1 µM; 72 h drug + 72 h drug-free recovery; perturbation: miRNA mimic
Measured property: cell count fold change with erlotinib
Write the value as a bare number.

Known results for sequences:
[[record]]
ordered_residues = "AGGACCUGCGGGACAAGAUUCUU"
number = 0.369

[[record]]
ordered_residues = "GAUUGCUCUGCGUGCGGAAUCGAC"
number = -1.68

[[record]]
ordered_residues = "UGUUUUGAUAACAGUAAUGU"
number = -1.27

[[record]]
ordered_residues = "UUCUCCAAAAGAAAGCACUUUCUG"
number = -1.65

[[record]]
ordered_residues = "CUCUUGAGGGAAGCACUUUCUGU"
number = -1.33


ACUUGUAUGCUAGCUCAGGUAG has a reported cell count fold change with erlotinib of -0.236

AGACCUGGCCCAGACCUCAGC has a reported cell count fold change with erlotinib of 0.672

AACUGGCCCUCAAAGUCCCGCU has a reported cell count fold change with erlotinib of -0.145

CUGCAAAGGGAAGCCCUUUC has a reported cell count fold change with erlotinib of -3.43

UUCCUAUGCAUAUACUUCUUUG has a reported cell count fold change with erlotinib of -1.18

CCAGUAUUAACUGUGCUGCUGA has a reported cell count fold change with erlotinib of -1.92

UAAAGAGCCCUGUGGAGACA has a reported cell count fold change with erlotinib of -1.03

AGUUUUGCAUAGUUGCACUACA has a reported cell count fold change with erlotinib of -2.57

UGAGCCCCUGUGCCGCCCCCAG has a reported cell count fold change with erlotinib of -1.44

Where do the numbers come from? From the supplement of paper PMC4976141.
